B1: CHCHD3 (parent)
chain: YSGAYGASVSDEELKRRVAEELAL

# Variants of: B1
# ASSAY PROTOCOL: protein stability index of a GFP-peptide fusion (GPS, HEK-293T) (PSI 1-6); higher = more stable;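 also: lentivirally expressed fusions sorted by FACS into six bins by GFP to DsRed ratio, PSI derived from sequencing read proportions per bin multiplied by bin number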
# ASSAY SETUP: c terminus: a fixed tail appended
The variants listed here are annotated with their protein stability index.
Respond numerically, and do not add a unit to the figure.

POLYMER SEQUENCE	protein stability index
YSGAYGASVSDEELKRRVAQELAL [E20Q]	2.68
YSGAYGASVSDRELKRRVAEELAL [E12R]	2.59

I am curious: what protein stability index value has been reported for YSGAYGASVSDEELKRRVAEHLAL [E21H] ? 2.44
